- testedTarget: α1M235Aβ3γ2S GABAA receptor (Rattus norvegicus, UniProt P62813+P63079, M262A)
- Sequence (P62813 28-455 M262A): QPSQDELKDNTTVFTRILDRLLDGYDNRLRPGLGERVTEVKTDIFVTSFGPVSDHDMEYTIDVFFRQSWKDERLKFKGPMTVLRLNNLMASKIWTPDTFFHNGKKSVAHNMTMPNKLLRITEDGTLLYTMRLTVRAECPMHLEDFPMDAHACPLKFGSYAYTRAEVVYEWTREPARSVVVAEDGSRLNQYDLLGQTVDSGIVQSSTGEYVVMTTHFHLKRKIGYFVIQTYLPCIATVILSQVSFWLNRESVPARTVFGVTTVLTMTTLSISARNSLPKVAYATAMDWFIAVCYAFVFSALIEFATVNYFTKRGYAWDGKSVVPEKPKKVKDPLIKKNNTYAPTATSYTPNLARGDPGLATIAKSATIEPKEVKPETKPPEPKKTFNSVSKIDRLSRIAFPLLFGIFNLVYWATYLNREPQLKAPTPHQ
- Sequence (P63079 26-473): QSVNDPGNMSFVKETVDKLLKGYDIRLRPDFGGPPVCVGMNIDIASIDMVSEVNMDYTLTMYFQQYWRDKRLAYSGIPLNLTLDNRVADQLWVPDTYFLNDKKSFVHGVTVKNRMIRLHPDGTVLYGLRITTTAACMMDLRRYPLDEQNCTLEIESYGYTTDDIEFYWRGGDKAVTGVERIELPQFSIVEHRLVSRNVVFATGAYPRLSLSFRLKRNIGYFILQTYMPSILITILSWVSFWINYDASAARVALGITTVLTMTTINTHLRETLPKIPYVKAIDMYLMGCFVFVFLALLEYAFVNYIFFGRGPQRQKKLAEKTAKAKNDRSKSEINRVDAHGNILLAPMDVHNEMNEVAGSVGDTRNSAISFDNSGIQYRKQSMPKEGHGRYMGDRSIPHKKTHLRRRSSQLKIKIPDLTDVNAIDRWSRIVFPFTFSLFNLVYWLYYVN
- Sequence (P18508 39-466 partner): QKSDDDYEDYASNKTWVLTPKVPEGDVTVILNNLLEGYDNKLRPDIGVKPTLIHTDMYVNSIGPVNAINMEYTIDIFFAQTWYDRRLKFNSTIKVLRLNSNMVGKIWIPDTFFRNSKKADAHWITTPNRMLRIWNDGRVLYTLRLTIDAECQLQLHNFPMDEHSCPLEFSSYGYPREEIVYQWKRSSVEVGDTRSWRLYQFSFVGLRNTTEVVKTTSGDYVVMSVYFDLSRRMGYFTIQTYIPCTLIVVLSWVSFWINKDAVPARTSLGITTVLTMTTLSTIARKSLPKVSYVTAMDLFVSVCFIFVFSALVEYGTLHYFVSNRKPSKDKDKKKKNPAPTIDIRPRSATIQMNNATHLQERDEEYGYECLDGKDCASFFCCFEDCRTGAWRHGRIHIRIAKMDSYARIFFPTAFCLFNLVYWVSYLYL
- test: I GABA enhancement by VA, two-microelectrode voltage clamp in Xenopus oocytes
measurementLabel: EC50

## Input Query EC50 on α1M235Aβ3γ2S GABAA receptor (Rattus norvegicus, UniProt P62813+P63079, M262A) for CC1=C2[C@H](/C=C(\C)C(=O)O)CC[C@@H](C)[C@H]2CC1 [VA, valerenic acid]
## Output 21.1 µM

====

- testedTarget: α1β3T266Aγ2S GABAA receptor (Rattus norvegicus, UniProt P62813+P63079, T291A)
- Sequence (P62813 28-455, stated change not applied): as the sequence (P62813 28-455 M262A) above, with A235M counted along it
- Sequence (P63079 26-473 T291A): as the sequence (P63079 26-473) above, with T266A counted along it
- Sequence (P18508 39-466 partner): as the sequence (P18508 39-466 partner) above
- test: I GABA enhancement by VA, two-microelectrode voltage clamp in Xenopus oocytes
measurementLabel: pEC50
Here pEC50 is given on a logarithmic scale as minus log10 of the concentration in mol/L.

## Input I'd like to know its pEC50. The molecule in question is CC1=C2[C@H](/C=C(\C)C(=O)O)CC[C@@H](C)[C@H]2CC1
## Output 5.12

Entry source: paper PMC4988470
